Values were extracted from patent US4863918A.

Tested on: paw twitch
Assay: Twitch depression (muscle relaxant effect) in anesthetized dogs; dog paw twitch
Format: in vivo, mongrel dogs
Conditions: Canis lupus familiaris, iv; Table V, dog paw twitch; read-out: Equi-efficacious dose
// assign YES if ED90 falls strictly below 0.04 mg/kg, else NO (ties count as NO)

C[N+](C)(C)CCOC(=O)CCC(=O)OCC[N+](C)(C)C [succinylcholine] : NO
COc1cc2c(cc1OC)C(Cc1cc(OC)c(OC)c(OC)c1)[N+](C)(CCCOC(=O)CCC=CCCC(=O)OCCC[N+]1(C)CCc3cc(OC)c(OC)cc3C1Cc1cc(OC)c(OC)c(OC)c1)CC2 (centres unmarked) [BW1090] : NO
CC(=O)O[C@H]1C[C@@H]2CC[C@@H]3[C@H](CC[C@@]4(C)[C@H]3C[C@H]([N+]3(C)CCCCC3)[C@@H]4OC(C)=O)[C@@]2(C)C[C@@H]1N1CCCCC1 [vecuronium] : YES
COc1ccc(CC2c3cc(OC)c(OC)cc3CC[N+]2(C)CCC(=O)OCCCCCOC(=O)CC[N+]2(C)CCc3cc(OC)c(OC)cc3C2Cc2ccc(OC)c(OC)c2)cc1OC (centres unmarked) [atracurium] : NO

Consider the additional compound presented here.
Data request: Here's an entry: CC(=O)O[C@H]1C[C@@H]2CC[C@@H]3[C@H](CC[C@@]4(C)[C@H]3C[C@H]([N+]3(C)CCCCC3)[C@@H]4OC(C)=O)[C@@]2(C)C[C@@H]1[N+]1(C)CCCCC1 [pancuronium] . Is its ED90 below 0.04 mg/kg?
Data returned: YES
